Kindly state melting point for each of the entries shown.

-- ask Requested field: melting point. Item: CCOC(=O)Cc1nn(CC(=O)Nc2ccccc2)c(=O)c2ccccc12
-- reply 187 °C

-- ask Requested field: melting point. Item: OC(CCCc1cccnc1)COc1ccc(C=Cc2ccccc2)cc1 (configuration not stated)
-- reply 110 to 111 °C

-- ask Requested field: melting point. Item: CC(=O)NC[C@H]1CN(c2ccc(C3=CCSCC3)c(F)c2)C(=O)O1
-- reply 119 to 122 °C

-- ask Requested field: melting point. Item: COC(=O)c1cc(O)cc(Cl)c1O
-- reply 126 °C

-- ask Requested field: melting point. Item: N#CCOc1ccccc1OCC#N
-- reply 85 to 85.5 °C

-- ask Requested field: melting point. Item: OCc1ccc(I)cc1O
-- reply 129 to 131 °C

-- ask Requested field: melting point. Item: O=C1CCC(N2Cc3c(OCc4cn5cc(CN6CCOCC6)ccc5n4)cccc3C2=O)C(=O)N1 (configuration not stated)
-- reply 155 to 157 °C

-- ask Requested field: melting point. Item: Cc1nc(N)sc1S(=O)(=O)NC(C)(CO)CO
-- reply 170 °C

-- ask Requested field: melting point. Item: COc1ccc(NC(=S)NCCCn2ccnc2)cc1OC
-- reply 160 to 161 °C

-- ask Requested field: melting point. Item: Cc1cccc(NC(=O)NC2N=C(c3ccccc3F)c3ccccc3N(Cc3nccc4ccccc34)C2=O)c1 (racemic)
-- reply 145 to 147 °C

-- ask Requested field: melting point. Item: Cc1cccc2c1N(N=C=O)C(=O)CN=C2
-- reply 206 to 212 °C

-- ask Requested field: melting point. Item: CC1(C)CC(=O)Nc2ccc(-c3cc(F)cc(C#N)c3)cc21
-- reply 249 to 250 °C

====

Kindly state melting point for each of the entries shown.

-- ask Requested field: melting point. Item: CN1C(=O)C(c2cccc(-c3ccccc3)c2)(C2CCN(C(=O)c3cccs3)CC2)N=C1N (stereo not given)
-- reply 135 to 137 °C

-- ask Requested field: melting point. Item: CCCc1c(OCCCSc2ccc(-c3nnn[nH]3)cc2)ccc(C(C)=O)c1O
-- reply 114 to 116 °C

-- ask Requested field: melting point. Item: CC(C)(C)c1ccc(C(=O)Nc2cn3cc(-c4cn[nH]c4)ccc3n2)cc1
-- reply 278 to 280 °C

-- ask Requested field: melting point. Item: COc1ccc2sc(Nc3ccc(OCCN4CCCC4)cc3)nc2c1
-- reply 167 to 168 °C

-- ask Requested field: melting point. Item: Cc1ccc(C(=O)Nc2c(NC(=O)CN3CCC4(CC3)OCCO4)ccc3c2C(=O)c2ccccc2C3=O)cc1
-- reply 197 to 198 °C

====

Kindly state melting point for each of the entries shown.

-- ask Requested field: melting point. Item: COc1cc(C=Cc2ccccc2)ccc1O
-- reply 132 to 134 °C

-- ask Requested field: melting point. Item: Cc1nc(-c2ccncn2)cc(=O)[nH]1
-- reply 320 to 322 °C

-- ask Requested field: melting point. Item: Nc1cccc(Sc2cccc3c2C(=O)c2cccc(Sc4cccc(N)c4)c2C3=O)c1
-- reply 292 to 293 °C

-- ask Requested field: melting point. Item: CN1C(=O)C(c2ccc(OCCCCBr)cc2)Sc2cc(Cl)ccc21 (stereo not drawn)
-- reply 70 to 72 °C

-- ask Requested field: melting point. Item: C[C@H](CC(F)(F)F)C(=O)N1C(=O)O[C@@H](c2ccccc2)[C@H]1C
-- reply 72.5 to 73.5 °C

-- ask Requested field: melting point. Item: Nc1ccc([N+](=O)[O-])cc1S(=O)(=O)N1CCOCC1
-- reply 204 to 206 °C

-- ask Requested field: melting point. Item: CC(C)[C@@H]1O[C@](C#CC2CC2)(C(F)(F)F)c2cc(Cl)ccc2NC1=O (relative stereo)
-- reply 167 °C

-- ask Requested field: melting point. Item: O[C@H]1CSC(c2ccccc2)=N[C@@H]1c1ccccc1 (racemic)
-- reply 142 °C

-- ask Requested field: melting point. Item: CN1CCC(=C2c3ccccc3C=Cc3ccc(Br)cc32)CC1
-- reply 189 to 190 °C

-- ask Requested field: melting point. Item: CCCCc1nc2ccccn2c(=O)c1-c1ccc2[nH]ccc2c1
-- reply 132 to 135 °C

-- ask Requested field: melting point. Item: CCN1C(=O)C(=C2Oc3ccccc3N2CC)SC1=S
-- reply 165 to 166 °C

-- ask Requested field: melting point. Item: COc1ccc(NC(=O)NC/C=C2\CCCc3ccc(OC)cc32)cc1
-- reply 168 to 170 °C

-- ask Requested field: melting point. Item: O=C(c1ccccc1)c1ccc(SCC(O)CO)cc1 (stereo not drawn)
-- reply 86 to 88 °C
